Field: protein stability index. Provide a value for each of the variants that follow.
B1: TBX5 (parent)
chain: FHEVGTEMIITKAGRRMFPSYKVK

variants of: B1; assay: protein stability index of a GFP-peptide fusion (GPS, HEK-293T) (PSI 1-6); higher = more stable; settings: c terminus: a fixed tail appended;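 also: lentivirally expressed fusions sorted by FACS into six bins by GFP to DsRed ratio, PSI derived from sequencing read proportions per bin multiplied by bin number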
Numbers only.

Reported protein stability index for FHEVGTEMIITKAGRRMLPSYKVK : what is it?
2.51

// each variant listed below needs its protein stability index
1. FHEVGTEMVITKAGRRMFPSYKVK
2. FHEVGTEMIITKAGRRMFPSYPVK
3. FHEVGTEMIITKAGRRMFPSFKVK
4. FHEVGTEMIITKAWRRMFPSYKVK
5. FQEVGTEMIITKAGRRMFPSYKVK

3.05
2.08
2.83
1.95
1.84

Give one value of protein stability index per listed variant.
1. FHEVGTEMIITKAGIRMFPSYKVK
2. FHEVGTEMIITKAGRRMFPYYKVK
3. FHEVGTEMIITKAGRRMHPSYKVK
4. FHEVGTEMIITKAHRRMFPSYKVK
5. FHEVGTEMIITKGGRRMFPSYKVK
6. FHEVGTEMIITKAGRRMFPSYKVW
7. AHEVGTEMIITKAGRRMFPSYKVK
8. FHEVGTEMIITKAGFRMFPSYKVK

1: 1.83; 2: 2.84; 3: 3.08; 4: 1.73; 5: 1.84; 6: 1.65; 7: 3.81; 8: 1.91

Look up protein stability index for the entries below, preserving their order.
1. FHEVGTEMIITKAGRCMFPSYKVK
2. FHEVGTEMIITKAGARMFPSYKVK
3. VHEVGTEMIITKAGRRMFPSYKVK
4. FHEVGTEPIITKAGRRMFPSYKVK
5. FHEVGTEMFITKAGRRMFPSYKVK

1.59
2.18
2.58
2.08
2.52

I'm hoping you can list protein stability index for every variant here, please.
1. FHEVGTEMIITKAGRRMFPNYKVK
2. QHEVGTEMIITKAGRRMFPSYKVK
3. FHEVGTEEIITKAGRRMFPSYKVK
4. FHAVGTEMIITKAGRRMFPSYKVK

2.06
3.25
3.03
1.87

Batch of 8 variants: report protein stability index for each.
1. FHEVGTEMIITSAGRRMFPSYKVK
2. FHEVGTEMIITKAGRRMFPSYKSK
3. FHEVGTEMIITRAGRRMFPSYKVK
4. FHEVGTEMIITKADRRMFPSYKVK
5. FHEVGTEMIITKAGRRMFYSYKVK
6. FHEVGTEMIITKAGRRMFPSVKVK
7. FHEVGTEMIITKAGRRMQPSYKVK
8. FHEVGTEMQITKAGRRMFPSYKVK

1. 2.51
2. 2.27
3. 2.02
4. 1.48
5. 3.12
6. 1.86
7. 2.58
8. 2.5

Need protein stability index for each of these variants.
1. FHEVGTEMIITKANRRMFPSYKVK
2. FHEVGTEMIITKAGRRMFPSYKVM
3. FHEVHTEMIITKAGRRMFPSYKVK
4. FHEVGTEMIPTKAGRRMFPSYKVK
5. FHEVGTEMIITKAGRYMFPSYKVK
6. FHEVGTEMIITKAGRRMFPSYLVK
7. FHVVGTEMIITKAGRRMFPSYKVK
8. FHEVGTEMIIEKAGRRMFPSYKVK

2.04
2.55
1.92
2.44
1.92
2.14
2.58
2.36

For each of the variants below, note its protein stability index.
1. FHEVGTEMIITKYGRRMFPSYKVK
2. FHEVGTEMIITKAGRTMFPSYKVK
3. FHEVGTEMIITKAGRRMCPSYKVK
4. FHEVGTEMIITKAARRMFPSYKVK
5. FHEVGTEMIITKAGRRMFPSPKVK
6. FHEVGTEMIFTKAGRRMFPSYKVK

1.55
2.03
2.61
2.6
2.13
3.28

Please state protein stability index for every variant in the list that follows.
1. FHEVGTEMINTKAGRRMFPSYKVK
2. FHEVGTEMIITKAGRVMFPSYKVK
3. FHEVGTEMIITKAGRRMFPSYKVT
4. FHEVGTEMIRTKAGRRMFPSYKVK
5. FHEVGTEMIHTKAGRRMFPSYKVK
6. FHEVGTEMIITKAGRRLFPSYKVK
7. FHEVGVEMIITKAGRRMFPSYKVK

2.03
1.54
2.41
2.21
2.25
2.27
2.07
